study system: Serine/threonine-protein kinase N1 (Homo sapiens)
assay protocol: Inhibition of PKN1 at 1 uM
Would you kindly list inhibition for each of these compounds?

Some solved cases for reference:
CN1CCN(c2ccc(-c3cnc4c(c3)N(Cc3cc(Cl)ccc3Cl)CCN4)cn2)CC1 | < 50%
CN1CCN(c2ccc(-c3cnc4c(c3)N(Cc3cc(F)ccc3F)CCN4)cn2)CC1 | < 50%
FC(F)(F)c1ccc(Cl)cc1CN1CCNc2ncc(-c3ccnc(N4CCNCC4)c3)cc21 | 82%
CN1CCN(c2ccc(-c3cnc4c(c3)N(Cc3cc(Cl)ccc3C(F)(F)F)CCN4)cn2)CC1 | < 50%

# map each compound to its inhibition
1. CN1CCN(c2ccc(-c3cnc4c(c3)N(Cc3c(F)ccc(F)c3Cl)CCN4)cn2)CC1
2. CC(=O)N1CCN(c2cc(-c3cnc4c(c3)N(Cc3cc(Cl)ccc3C(F)(F)F)CCN4)ccn2)CC1

< 50%
< 50%

* * *

Assign inhibition to each entry below.
study system: Serine/threonine-protein kinase DCLK3 (Homo sapiens)
assay protocol: Inhibition of DCAMKL3 at 1 uM
One number for each entry, in %.

List the reported inhibition of each compound below.
1. CN1CCN(c2ccc(-c3cnc4c(c3)N(Cc3cc(Cl)ccc3C(F)(F)F)CCN4)cn2)CC1
2. CC(=O)N1CCN(c2cc(-c3cnc4c(c3)N(Cc3cc(Cl)ccc3C(F)(F)F)CCN4)ccn2)CC1
3. CN1CCN(c2ccc(-c3cnc4c(c3)N(Cc3cc(Cl)ccc3Cl)CCN4)cn2)CC1

1: 75; 2: 92; 3: 84

Give one value of inhibition per listed compound.
1. FC(F)(F)c1ccc(Cl)cc1CN1CCNc2ncc(-c3ccnc(N4CCNCC4)c3)cc21
2. CN1CCN(c2ccc(-c3cnc4c(c3)N(Cc3cc(F)ccc3F)CCN4)cn2)CC1

1. 99
2. 89

* * *

study system: Mitogen-activated protein kinase kinase kinase kinase 1 (Homo sapiens)
assay protocol: Inhibition of HPK1 at 1 uM
measured property: inhibition

Before answering, review these 2 worked examples.
CN1CCN(c2ccc(-c3cnc4c(c3)N(Cc3cc(Cl)ccc3C(F)(F)F)CCN4)cn2)CC1 | < 50%
CN1CCN(c2ccc(-c3cnc4c(c3)N(Cc3cc(F)ccc3F)CCN4)cn2)CC1 | < 50%

// inhibition lookup, compound = CN1CCN(c2ccc(-c3cnc4c(c3)N(Cc3cc(Cl)ccc3Cl)CCN4)cn2)CC1 , result: < 50%

* * *

For each record, write down the corresponding inhibition.
study system: Cyclin-dependent kinase 7 (Homo sapiens) (UniProt P50613)
Sequence (P50613 whole entry): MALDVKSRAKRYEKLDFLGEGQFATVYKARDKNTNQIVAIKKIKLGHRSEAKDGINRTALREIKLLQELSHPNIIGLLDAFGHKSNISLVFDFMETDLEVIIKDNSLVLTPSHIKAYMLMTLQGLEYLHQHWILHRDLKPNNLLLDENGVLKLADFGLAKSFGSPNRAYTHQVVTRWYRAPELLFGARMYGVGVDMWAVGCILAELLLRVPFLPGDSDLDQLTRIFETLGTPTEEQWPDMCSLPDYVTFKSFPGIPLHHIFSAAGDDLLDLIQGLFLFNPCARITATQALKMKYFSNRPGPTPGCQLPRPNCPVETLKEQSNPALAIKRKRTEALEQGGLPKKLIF
assay protocol: Inhibition of CDK7 at 1 uM

CN1CCN(c2ccc(-c3cnc4c(c3)N(Cc3c(F)ccc(F)c3Cl)CCN4)cn2)CC1 | < 50%

// batch mode: one inhibition value per listed entry
1. CN1CCN(c2ccc(-c3cnc4c(c3)N(Cc3cc(Cl)ccc3Cl)CCN4)cn2)CC1
2. CN1CCN(c2ccc(-c3cnc4c(c3)N(Cc3cc(F)ccc3F)CCN4)cn2)CC1

< 50%
< 50%

Hey, quick one: what's inhibition for each of these?
1. CC(=O)N1CCN(c2cc(-c3cnc4c(c3)N(Cc3cc(Cl)ccc3C(F)(F)F)CCN4)ccn2)CC1
2. FC(F)(F)c1ccc(Cl)cc1CN1CCNc2ncc(-c3ccnc(N4CCNCC4)c3)cc21
3. CN1CCN(c2ccc(-c3cnc4c(c3)N(Cc3cc(Cl)ccc3C(F)(F)F)CCN4)cn2)CC1

< 50%
< 50%
< 50%

* * *

assay protocol: Inhibition of FLT3 ITD mutant at 1 uM
Field: inhibition. Provide a value for each of the compounds that follow.

FC(F)(F)c1ccc(Cl)cc1CN1CCNc2ncc(-c3ccnc(N4CCNCC4)c3)cc21 | 74%

Report inhibition for each item below.
1. CC(=O)N1CCN(c2cc(-c3cnc4c(c3)N(Cc3cc(Cl)ccc3C(F)(F)F)CCN4)ccn2)CC1
2. COC1CCN(C(=O)c2ccc(-c3cnc4c(c3)N(Cc3cc(Cl)ccc3C(F)(F)F)CCN4)cc2)CC1
3. O=C(O)c1ccc(-c2cnc3c(c2)N(Cc2cc(Cl)ccc2C(F)(F)F)CCN3)cc1
4. O=C(c1ccc(-c2cnc3c(c2)N(Cc2cc(Cl)ccc2C(F)(F)F)CCN3)cc1)N1CCCCC1
5. CN1CCN(c2ccc(-c3cnc4c(c3)N(Cc3cc(Cl)ccc3Cl)CCN4)cn2)CC1

1: < 50%; 2: < 50%; 3: < 50%; 4: < 50%; 5: < 50%

// for each compound below, give its inhibition
1. CN1CCN(c2ccc(-c3cnc4c(c3)N(Cc3cc(F)ccc3F)CCN4)cn2)CC1
2. O=C(c1ccc(-c2cnc3c(c2)N(Cc2cc(Cl)ccc2C(F)(F)F)CCN3)cc1)N1CCC(N2CCCC2)CC1
3. CN1CCN(c2ccc(-c3cnc4c(c3)N(Cc3c(F)ccc(F)c3Cl)CCN4)cn2)CC1

1. < 50%
2. < 50%
3. < 50%

For record CN1CCN(c2ccc(-c3cnc4c(c3)N(Cc3cc(Cl)ccc3C(F)(F)F)CCN4)cn2)CC1 the listed inhibition is 90%

* * *

study system: Serine/threonine-protein kinase 32C (Homo sapiens) (UniProt Q86UX6)
Sequence (Q86UX6 whole entry): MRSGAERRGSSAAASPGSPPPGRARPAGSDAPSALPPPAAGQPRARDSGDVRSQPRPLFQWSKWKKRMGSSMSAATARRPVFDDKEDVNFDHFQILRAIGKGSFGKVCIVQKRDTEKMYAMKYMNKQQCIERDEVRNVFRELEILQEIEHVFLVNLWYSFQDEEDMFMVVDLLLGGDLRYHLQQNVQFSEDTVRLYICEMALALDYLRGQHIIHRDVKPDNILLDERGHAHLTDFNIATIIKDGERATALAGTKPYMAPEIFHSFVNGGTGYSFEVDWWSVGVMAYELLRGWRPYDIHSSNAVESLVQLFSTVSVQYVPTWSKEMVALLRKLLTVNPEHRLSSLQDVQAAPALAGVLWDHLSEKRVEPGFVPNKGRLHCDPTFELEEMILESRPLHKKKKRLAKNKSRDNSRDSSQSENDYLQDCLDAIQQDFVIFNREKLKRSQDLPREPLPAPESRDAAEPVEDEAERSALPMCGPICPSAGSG
assay protocol: Inhibition of YANK3 at 1 uM
measured property: inhibition

Completed entries (count: 4):
O=C(c1ccc(-c2cnc3c(c2)N(Cc2cc(Cl)ccc2C(F)(F)F)CCN3)cc1)N1CCCCC1 | < 50%
O=C(c1ccc(-c2cnc3c(c2)N(Cc2cc(Cl)ccc2C(F)(F)F)CCN3)cc1)N1CCC(N2CCCC2)CC1 | < 50%
O=C(O)c1ccc(-c2cnc3c(c2)N(Cc2cc(Cl)ccc2C(F)(F)F)CCN3)cc1 | < 50%
CN1CCN(c2ccc(-c3cnc4c(c3)N(Cc3cc(Cl)ccc3C(F)(F)F)CCN4)cn2)CC1 | < 50%

Consider the record given below.
The observed inhibition for CN1CCN(c2ccc(-c3cnc4c(c3)N(Cc3cc(Cl)ccc3Cl)CCN4)cn2)CC1 when tested with Serine/threonine-protein kinase 32C (Homo sapiens) (UniProt Q86UX6) stands at < 50%

* * *

study system: RAC-beta serine/threonine-protein kinase (Homo sapiens)
assay protocol: Inhibition of AKT2 at 1 uM
measured property: inhibition

O=C(c1ccc(-c2cnc3c(c2)N(Cc2cc(Cl)ccc2C(F)(F)F)CCN3)cc1)N1CCC(N2CCCC2)CC1 | < 50%

Dear colleague, could you please provide inhibition for the molecules listed below?
1. CN1CCN(c2ccc(-c3cnc4c(c3)N(Cc3cc(Cl)ccc3C(F)(F)F)CCN4)cn2)CC1
2. CN1CCN(c2ccc(-c3cnc4c(c3)N(Cc3cc(F)ccc3F)CCN4)cn2)CC1
3. O=C(O)c1ccc(-c2cnc3c(c2)N(Cc2cc(Cl)ccc2C(F)(F)F)CCN3)cc1
4. O=C(c1ccc(-c2cnc3c(c2)N(Cc2cc(Cl)ccc2C(F)(F)F)CCN3)cc1)N1CCCCC1
5. CN1CCN(c2ccc(-c3cnc4c(c3)N(Cc3c(F)ccc(F)c3Cl)CCN4)cn2)CC1
6. CC(=O)N1CCN(c2cc(-c3cnc4c(c3)N(Cc3cc(Cl)ccc3C(F)(F)F)CCN4)ccn2)CC1

1: < 50%; 2: < 50%; 3: < 50%; 4: < 50%; 5: < 50%; 6: < 50%

* * *

study system: Serine/threonine-protein kinase PLK4 (Homo sapiens)
assay protocol: Inhibition of PLK4 at 1 uM
Hi there, I'd appreciate the recorded inhibition for every entry that follows.

Solved cases (9 shown):
O=C(c1ccc(-c2cnc3c(c2)N(Cc2cc(Cl)ccc2C(F)(F)F)CCN3)cc1)N1CCCCC1 | < 50%
COC1CCN(C(=O)c2ccc(-c3cnc4c(c3)N(Cc3cc(Cl)ccc3C(F)(F)F)CCN4)cc2)CC1 | 73.8%
CN1CCN(c2ccc(-c3cnc4c(c3)N(Cc3cc(Cl)ccc3Cl)CCN4)cn2)CC1 | < 50%
CN1CCN(c2ccc(-c3cnc4c(c3)N(Cc3c(F)ccc(F)c3Cl)CCN4)cn2)CC1 | < 50%
CN1CCN(c2ccc(-c3cnc4c(c3)N(Cc3cc(F)ccc3F)CCN4)cn2)CC1 | < 50%
O=C(c1ccc(-c2cnc3c(c2)N(Cc2cc(Cl)ccc2C(F)(F)F)CCN3)cc1)N1CCC(N2CCCC2)CC1 | 92.4%
FC(F)(F)c1ccc(Cl)cc1CN1CCNc2ncc(-c3ccnc(N4CCNCC4)c3)cc21 | < 50%
CN1CCN(c2ccc(-c3cnc4c(c3)N(Cc3cc(Cl)ccc3C(F)(F)F)CCN4)cn2)CC1 | < 50%
O=C(O)c1ccc(-c2cnc3c(c2)N(Cc2cc(Cl)ccc2C(F)(F)F)CCN3)cc1 | 91.7%

# ---- query compound ----
# compound CC(=O)N1CCN(c2cc(-c3cnc4c(c3)N(Cc3cc(Cl)ccc3C(F)(F)F)CCN4)ccn2)CC1 ; its inhibition = < 50%

* * *

Assign log10 of IC50 to each entry below.
study system: ALK tyrosine kinase receptor (Homo sapiens, UniProt Q9UM73)
Sequence (Q9UM73 whole entry): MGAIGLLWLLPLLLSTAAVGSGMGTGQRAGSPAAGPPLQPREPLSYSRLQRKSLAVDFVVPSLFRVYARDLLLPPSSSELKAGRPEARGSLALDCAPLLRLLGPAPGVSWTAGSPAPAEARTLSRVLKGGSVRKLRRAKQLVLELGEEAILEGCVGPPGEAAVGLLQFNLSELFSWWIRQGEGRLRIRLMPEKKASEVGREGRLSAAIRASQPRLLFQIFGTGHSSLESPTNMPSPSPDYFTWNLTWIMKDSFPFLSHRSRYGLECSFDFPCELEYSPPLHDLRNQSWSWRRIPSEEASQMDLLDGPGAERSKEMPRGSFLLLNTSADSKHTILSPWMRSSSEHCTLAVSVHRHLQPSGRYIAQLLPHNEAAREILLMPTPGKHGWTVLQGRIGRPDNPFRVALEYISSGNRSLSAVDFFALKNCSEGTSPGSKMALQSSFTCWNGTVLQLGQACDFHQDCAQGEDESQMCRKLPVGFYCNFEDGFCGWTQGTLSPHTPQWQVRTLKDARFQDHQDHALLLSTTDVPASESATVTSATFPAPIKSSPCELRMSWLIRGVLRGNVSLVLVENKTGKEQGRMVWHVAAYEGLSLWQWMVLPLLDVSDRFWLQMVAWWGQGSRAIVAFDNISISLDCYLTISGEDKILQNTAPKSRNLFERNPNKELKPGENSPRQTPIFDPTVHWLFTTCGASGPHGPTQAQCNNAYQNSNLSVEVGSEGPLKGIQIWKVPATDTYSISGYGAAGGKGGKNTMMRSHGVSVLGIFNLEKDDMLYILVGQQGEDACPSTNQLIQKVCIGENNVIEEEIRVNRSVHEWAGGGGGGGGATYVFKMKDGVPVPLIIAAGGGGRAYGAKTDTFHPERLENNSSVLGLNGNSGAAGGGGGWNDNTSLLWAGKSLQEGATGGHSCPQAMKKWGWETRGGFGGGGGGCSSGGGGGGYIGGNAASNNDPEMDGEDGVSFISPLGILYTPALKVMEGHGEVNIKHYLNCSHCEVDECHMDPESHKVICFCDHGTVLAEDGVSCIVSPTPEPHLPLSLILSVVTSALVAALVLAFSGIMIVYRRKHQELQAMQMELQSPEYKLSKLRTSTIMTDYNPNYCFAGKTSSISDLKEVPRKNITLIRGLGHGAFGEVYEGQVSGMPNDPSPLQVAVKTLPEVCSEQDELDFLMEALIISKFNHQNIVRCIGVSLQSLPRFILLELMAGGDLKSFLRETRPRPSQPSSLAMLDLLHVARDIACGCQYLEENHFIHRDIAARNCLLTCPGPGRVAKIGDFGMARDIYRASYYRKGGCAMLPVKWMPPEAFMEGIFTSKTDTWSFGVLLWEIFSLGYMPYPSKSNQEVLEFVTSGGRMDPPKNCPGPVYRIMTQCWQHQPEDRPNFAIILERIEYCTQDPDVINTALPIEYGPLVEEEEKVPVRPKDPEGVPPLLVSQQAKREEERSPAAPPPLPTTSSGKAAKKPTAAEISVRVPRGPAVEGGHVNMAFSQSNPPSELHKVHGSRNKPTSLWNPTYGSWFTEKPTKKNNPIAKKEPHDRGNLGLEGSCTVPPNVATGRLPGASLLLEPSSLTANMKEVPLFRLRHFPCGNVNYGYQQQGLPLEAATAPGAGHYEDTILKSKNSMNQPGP
assay protocol: Inhibition of ALK by time-resolved fluorescence assay
Parameter value (number): base-10 log of IC50 in nM.

Completed entries (count: 5):
O=C(c1ccc(-c2cnc3c(c2)N(Cc2cc(F)ccc2F)CCN3)cc1)N1CCC[C@H]1CN1CCCC1 | 1.18
CN1CCN(c2ccc(-c3cnc4c(c3)C(Cc3cc(F)ccc3F)CCN4)cn2)CC1 (centres undefined) | 3.19
CN1CCN(c2ccc(-c3cnc4c(c3)N(Cc3cc(Cl)ccc3Cl)CCN4)cn2)CC1 | 1.04
COC1CCN(C(=O)c2ccc(-c3cnc4c(c3)N(Cc3cc(Cl)ccc3C(F)(F)F)CCN4)cc2)CC1 | 1.60
FC(F)(F)c1ccc(Cl)cc1CN1CCNc2ncc(-c3ccnc(N4CCNCC4)c3)cc21 | 1.00

Provide log10 of IC50 for all items below, preserving their order.
1. CN1CCN(c2ccc(-c3cnc4c(c3)N(Cc3c(Cl)cccc3C(F)(F)F)CCN4)cn2)CC1
2. O=C(O)c1ccc(-c2cnc3c(c2)N(Cc2cc(Cl)ccc2C(F)(F)F)CCN3)cc1

2.70
3.11

The reported numbers originate from ChEMBL document CHEMBL1165965.
